Let's look at some molecules and their measured t1/2 (min, RLM).
# assayOverview: Microsomal metabolic stability, rat liver microsomes (RLM)
# measurementContext: rat liver microsomes
Only the number, expressed in min, is required.

What value of t1/2 (min, RLM) has been recorded for this entry: O=c1c2cc(F)ccc2n2c(=S)[nH]nc2n1CCCc1ccccc1 8.8

What value of t1/2 (min, RLM) has been recorded for this entry: O=c1c2cc(F)ccc2n2c(=S)[nH]nc2n1CCc1ccccc1Cl 22.8

What value of t1/2 (min, RLM) has been recorded for this entry: O=C(Cc1cccc(C(F)(F)F)c1)NCCCn1c(=O)c2cc(F)ccc2n2c(=S)[nH]nc12 17.3

----------
# assayOverview: PAMPA permeability
# note: exactly 400 ×10⁻⁶ cm/s is not below, so it is 0.0; use 1.0 for PAMPA strictly under it

These recorded examples may help you get a feel for the data.
compound	answerLabel
O=C(Cc1ccncc1)NCCCn1c(=O)c2cc(F)ccc2n2c(=S)[nH]nc12 [compound 138]	1.0
O=C(Cc1ccccn1)NCCCn1c(=O)c2cc(F)ccc2n2c(=S)[nH]nc12 [compound 136]	1.0
COc1ccccc1CC(=O)NCCCn1c(=O)c2cc(F)ccc2n2c(=S)[nH]nc12 [compound 128]	1.0
O=C(Cc1cccc(Cl)c1)NCCCn1c(=O)c2cc(F)ccc2n2c(=S)[nH]nc12 [compound 124]	0.0
O=C(Cc1cccnc1)NCCCn1c(=O)c2cc(F)ccc2n2c(=S)[nH]nc12 [compound 137]	1.0
CCCn1c(=O)c2cc(F)ccc2n2c(=S)[nH]nc12 [compound 64]	1.0
Cc1ccc(CC(=O)NCCCn2c(=O)c3cc(F)ccc3n3c(=S)[nH]nc23)cc1 [compound 126]	0.0
O=C(Cc1cccc(F)c1)NCCCn1c(=O)c2cc(F)ccc2n2c(=S)[nH]nc12 [compound 122]	1.0

State whether 400 ×10⁻⁶ cm/s exceeds PAMPA recorded for O=C(Cc1ccccc1)NCCCn1c(=O)c2cc(F)ccc2n2c(=S)[nH]nc12 [compound 120] . 1.0

State whether 400 ×10⁻⁶ cm/s exceeds PAMPA recorded for CC(C)(C)OC(=O)Nc1ccc(CC(=O)NCCCn2c(=O)c3cc(F)ccc3n3c(=S)[nH]nc23)cc1 [compound 135] . 0.0

State whether 400 ×10⁻⁶ cm/s exceeds PAMPA recorded for O=C(Cc1ccccc1C(F)(F)F)NCCCn1c(=O)c2cc(F)ccc2n2c(=S)[nH]nc12 [compound 131] . 0.0

State whether 400 ×10⁻⁶ cm/s exceeds PAMPA recorded for N#Cc1ccccc1CC(=O)NCCCn1c(=O)c2cc(F)ccc2n2c(=S)[nH]nc12 [compound 133] . 1.0

State whether 400 ×10⁻⁶ cm/s exceeds PAMPA recorded for O=C(Cc1ccc(Br)cc1)NCCCn1c(=O)c2cc(F)ccc2n2c(=S)[nH]nc12 [compound 125] . 0.0

----------
# assayOverview: Aqueous solubility
# measurementContext: aqueous solubility
assayMetric: Solub. (µg/mL)
Only the number, expressed in µg/mL, is required.

Below: 2 molecules and their reported Solub..
molecule	experimentalResult
CC(C)OCCCn1c(=O)c2cc(Cl)ccc2n2c(=S)[nH]nc12 [compound 56]	8.6
O=c1c2cc(F)ccc2n2c(=S)[nH]nc2n1Cc1ccccc1 [compound 52]	8.3

Moving on to another molecule below.
What value of Solub. has been recorded for this entry: CC(C)(C)[C@H]1CC[C@H](C(=O)NCCCn2c(=O)c3cc(F)ccc3n3c(=S)[nH]nc23)CC1 [compound 109] 1.1

----------
# assayOverview: Aqueous solubility
# measurementContext: aqueous solubility
Kindly return MET if reported Solub. is no lower than 20 µg/mL; return NOT MET if it is lower.

compound	answerLabel
O=C(Cc1ccccc1)NCCCn1c(=O)c2cc(F)ccc2n2c(=S)[nH]nc12	MET
O=C(O)CCC(=O)NCCCn1c(=O)c2cc(F)ccc2n2c(=S)[nH]nc12	MET
O=c1c2cc(F)ccc2n2c(=S)[nH]nc2n1CCP(=O)(O)O	MET
O=C(NCCCn1c(=O)c2cc(F)ccc2n2c(=S)[nH]nc12)C1CCCNC1 (stereo not drawn)	MET

Has Cc1ccc(CC(=O)NCCCn2c(=O)c3cc(F)ccc3n3c(=S)[nH]nc23)cc1 a recorded Solub. greater than or equal to 20 µg/mL? NOT MET

Has O=c1c2cc(F)ccc2n2c(=S)[nH]nc2n1CCc1ccccn1 a recorded Solub. greater than or equal to 20 µg/mL? NOT MET

Has Nc1nnc2n(CCc3ccccc3)c(=O)c3cc(F)ccc3n12 a recorded Solub. greater than or equal to 20 µg/mL? NOT MET

Has CC(C)NC(=O)CCn1c(=O)c2cc(Cl)ccc2n2c(=S)[nH]nc12 a recorded Solub. greater than or equal to 20 µg/mL? NOT MET

Has Cc1nnc2n(CCc3ccccc3)c(=O)c3cc(F)ccc3n12 a recorded Solub. greater than or equal to 20 µg/mL? NOT MET

Has O=C(Cc1cccc(F)c1)NCCCn1c(=O)c2cc(F)ccc2n2c(=S)[nH]nc12 a recorded Solub. greater than or equal to 20 µg/mL? MET

Has O=C(Cc1ccc(O)cc1)NCCCn1c(=O)c2cc(F)ccc2n2c(=S)[nH]nc12 a recorded Solub. greater than or equal to 20 µg/mL? MET

Has CCOCCCn1c(=O)c2ccccc2n2c(=S)[nH]nc12 a recorded Solub. greater than or equal to 20 µg/mL? NOT MET

Has NC1CCC(C(=O)NCCCn2c(=O)c3cc(F)ccc3n3c(=S)[nH]nc23)CC1 (stereo not drawn) a recorded Solub. greater than or equal to 20 µg/mL? MET

Has CC(C)(C)OC(=O)N1CC(CCn2c(=O)c3cc(F)ccc3n3c(=S)[nH]nc23)C1 a recorded Solub. greater than or equal to 20 µg/mL? NOT MET

Has O=C(Cc1ccccn1)NCCCn1c(=O)c2cc(F)ccc2n2c(=S)[nH]nc12 a recorded Solub. greater than or equal to 20 µg/mL? MET

Has O=C(NCCCn1c(=O)c2cc(F)ccc2n2c(=S)[nH]nc12)C1CCCCN1 (stereo not drawn) a recorded Solub. greater than or equal to 20 µg/mL? MET

Has CN1CCN(CCn2c(=O)c3cc(F)ccc3n3c(=S)[nH]nc23)CC1 a recorded Solub. greater than or equal to 20 µg/mL? MET

----------
# assayOverview: Aqueous solubility
# measurementContext: aqueous solubility
Let's look at some molecules and their measured Solub..
Only the number, expressed in µg/mL, is required.

structureNotation	Solub. [µg/mL]
O=c1c2cc(F)ccc2n2c(=S)[nH]nc2n1CC1CC1	16.2
NCCCCCC(=O)NCCCn1c(=O)c2cc(F)ccc2n2c(=S)[nH]nc12	31.8
O=c1c2cc(Cl)ccc2n2c(=S)[nH]nc2n1CCC(F)(F)F	5.1

Moving on to another molecule below.
What value of Solub. has been recorded for this entry: O=C(NCCCn1c(=O)c2cc(F)ccc2n2c(=S)[nH]nc12)c1ccccc1 21.9

----------
Let's look at some compounds and their measured Solub..
# assayOverview: Aqueous solubility
# measurementContext: aqueous solubility

compound	Solub.
CCCn1c(=O)c2ccccc2n2c(=S)[nH]nc12 [compound 21]	21.3 µg/mL
NCCOCCOCCOCCC(=O)NCCCn1c(=O)c2cc(F)ccc2n2c(=S)[nH]nc12 [compound 98]	36.1 µg/mL
O=C(NCCCn1c(=O)c2cc(F)ccc2n2c(=S)[nH]nc12)C1CCOCC1 [compound 115]	<1 µg/mL
O=c1c2cc(F)ccc2n2c(=S)[nH]nc2n1CCc1ccncc1 [compound 85]	10.9 µg/mL

Moving on to another compound below.
What value of Solub. has been recorded for this entry: NCCn1c(=O)c2cc(F)ccc2n2c(=S)[nH]nc12 [compound 67] >41 µg/mL

----------
# assayOverview: Stability in mouse cytosol
# Format: in vitro ADME
# measurementContext: read-out: t1/2 Mouse cytosol
assayMetric: half-life

structureNotation	half-life
CCCn1c(=O)c2cc(F)ccc2n2c(=S)[nH]nc12	> 2 h
CCCn1c(=O)c2ccccc2n2c(SC)nnc12	> 2 h
CCCn1c(=O)c2ccccc2n2c(=S)[nH]nc12	> 2 h

Moving on to another compound below.
What value of half-life has been recorded for this entry: CCCn1c(=O)c2cc(F)ccc2n2c(SC)nnc12 > 2 h

----------
# assayOverview: Aqueous solubility
# measurementContext: aqueous solubility
Kindly return Met if reported Solub. is no lower than 20 µg/mL; return Not met if it is lower.

These recorded examples may help you get a feel for the data.
molecule	answerLabel
CCn1c(=O)c2ccccc2n2c(=S)[nH]nc12	Met
O=c1c2cc(F)ccc2n2c(=S)[nH]nc2n1CCN1CCOCC1	Met
CS(=O)(=O)NCCCn1c(=O)c2cc(F)ccc2n2c(=S)[nH]nc12	Met
O=C(Cc1ccc(Br)cc1)NCCCn1c(=O)c2cc(F)ccc2n2c(=S)[nH]nc12	Not met
CC(=O)NCCCn1c(=O)c2cc(F)ccc2n2c(=S)[nH]nc12	Met

Has CC(CN(C)C)n1c(=O)c2cc(F)ccc2n2c(=S)[nH]nc12 (stereo not drawn) a recorded Solub. greater than or equal to 20 µg/mL? Met
